Recorded values, source patent US10975055B2.

- test.system: IRAK1 (Homo sapiens, UniProt P51617)
- Sequence (P51617 whole entry): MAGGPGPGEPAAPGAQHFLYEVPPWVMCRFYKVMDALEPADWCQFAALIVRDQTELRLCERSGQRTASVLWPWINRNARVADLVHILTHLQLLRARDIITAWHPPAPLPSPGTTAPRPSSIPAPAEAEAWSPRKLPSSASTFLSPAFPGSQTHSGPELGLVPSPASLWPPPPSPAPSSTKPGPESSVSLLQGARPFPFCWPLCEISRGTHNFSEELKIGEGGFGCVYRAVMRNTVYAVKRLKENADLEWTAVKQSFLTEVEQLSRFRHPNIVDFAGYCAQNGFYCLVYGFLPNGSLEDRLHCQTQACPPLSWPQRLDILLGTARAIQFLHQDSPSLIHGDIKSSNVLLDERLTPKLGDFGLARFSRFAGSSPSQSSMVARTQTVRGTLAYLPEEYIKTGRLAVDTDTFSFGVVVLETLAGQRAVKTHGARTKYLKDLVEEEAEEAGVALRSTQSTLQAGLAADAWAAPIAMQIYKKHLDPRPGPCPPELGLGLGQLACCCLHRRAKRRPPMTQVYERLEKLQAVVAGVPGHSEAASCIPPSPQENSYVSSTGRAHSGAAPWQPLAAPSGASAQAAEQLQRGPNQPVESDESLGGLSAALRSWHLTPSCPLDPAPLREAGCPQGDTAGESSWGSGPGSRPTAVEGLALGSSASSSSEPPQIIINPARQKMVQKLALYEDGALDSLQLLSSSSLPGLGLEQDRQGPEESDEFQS
- protocol.description: IRAK1 Alexa kinase assay (TR-FRET, ADP tracer)
- Type: biochemical
- condition.set: read-out: IRAK1 IC50
Below is a list of entries, each paired with its recorded IC50 value.
Output spec: scalar in nM, unitless text.

>  <compound>
C=CC(=O)Nc1cccc(C(=O)Nc2ccc(NC(=O)c3cccc(-c4cnn(C)c4)n3)cc2)c1 [JH-XIII-80-2]

>  <val>
67

$$$$
>  <compound>
C=CC(=O)Nc1cccc(C(=O)Nc2ccc(NC(=O)c3cccc(-c4cn[nH]c4)n3)cc2)c1 [JH-XIII-80-3]

>  <val>
22

$$$$
>  <compound>
C=CC(=O)NC12CC(NC(=O)c3ccc(NC(=O)c4cccc(-c5ccn[nH]5)n4)cc3)(C1)C2 [JH-XII-200-3]

>  <val>
51

$$$$
>  <compound>
C=CC(=O)Nc1cccc(C(=O)Nc2ccc(NC(=O)c3cccc(-c4cnoc4)n3)cc2)c1 [JH-XIII-80-1]

>  <val>
12

$$$$
>  <compound>
C=CC(=O)Nc1cccc(-c2cn(-c3ccc(NC(=O)c4cccc(-c5ccn[nH]5)n4)cc3)nn2)c1 [JH-XIII-96-2]

>  <val>
40

$$$$

For the next question, use this compound.
Measured IC50, C=CC(=O)N[C@H]1CC[C@H](NC(=O)c2ccc(NC(=O)c3cccc(-c4ccn[nH]4)n3)cc2)CC1 [JH-XII-200-1] : 46
